# target under test: T1, human bombesin receptor subtype-3 (human, UniProt P32247 1-399)
# T1 construct: bombesin receptor subtype-3 of human (Homo sapiens); also called hBRS3; human BRS3; source: HEK293, transiently transfected, on cells
# T1 sequence (looked up): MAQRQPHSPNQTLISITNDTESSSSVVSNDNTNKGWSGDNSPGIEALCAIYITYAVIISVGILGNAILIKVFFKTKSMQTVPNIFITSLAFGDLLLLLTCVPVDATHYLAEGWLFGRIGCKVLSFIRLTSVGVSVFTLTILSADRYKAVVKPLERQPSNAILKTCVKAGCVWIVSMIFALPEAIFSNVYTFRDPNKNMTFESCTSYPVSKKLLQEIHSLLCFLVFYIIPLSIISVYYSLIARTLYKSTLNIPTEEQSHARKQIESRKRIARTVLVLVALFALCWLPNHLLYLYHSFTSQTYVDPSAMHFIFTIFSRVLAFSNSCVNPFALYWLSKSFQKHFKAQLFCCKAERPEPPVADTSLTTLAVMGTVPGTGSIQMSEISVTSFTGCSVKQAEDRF
# test summary: radioligand binding; displacement of 50 pM [125I]-Tyr-NMB by unlabeled peptide on disaggregated transfected HEK293 cells; 1 h at 21°C; 24.5 mM HEPES pH 7.4, 98 mM NaCl; bound tracer separated by centrifugation
# details: one partner purified
pKi: −log10 of the molar value. Where no end group is shown, it is not given here.
measured endpoint: pKi

**Query** Query (binder): YKIKVNPRGNLWATGHFM (ends and bridges not checked, The N-terminal Tyr may have been added for iodination (surmise); No C-terminal amide is printed for this peptide; also called NMB; source: synthetic peptide (Anhui Guoping Pharmaceutical)) [neuromedin B, unlabeled ligand peptide of the radioligand binding assays] ; field requested: pKi
**Result** < 6.00
